- assay: Selectivity ratio of IC50 for human embryo lung fibroblast to IC50 for human KB cells
- Type: ADME, cell-based
- protocol.conditions: human embryo lung fibroblasts and KB cells

compound	selectivity ratio
COC(=O)[C@H]1O[C@@H](O[C@H]2CC[C@@]3(C)C(CC[C@]4(C)[C@@H]3CC=C3[C@@H]5CC(C)(C)[C@@H](O)[C@H](O)[C@]5(CO)[C@H](O)[C@H](O)[C@]34C)C2(C)C)[C@H](O[C@@H]2O[C@H](CO)[C@@H](O)[C@H](O)[C@H]2O)[C@@H](O)[C@@H]1O[C@@H]1O[C@@H](CO)[C@H](O)[C@H]1O (stereo partly specified)	> 33

Hello, the source for this data is ChEMBL document CHEMBL1148962, in case you need it.
